- Tested on: Escherichia coli TOP10
- METHOD: shrunken log2 fold change of peptide-encoding DNA abundance (4.5 h post-induction vs induction); higher = less antimicrobial activity (less host growth inhibition)
- CONDITION: time post-induction: 4.5 h; library: site-saturation at positions 5, 18, 19, 20
PROPERTY NAME: shrunken log2 fold change

[
  {
    "POLYMER SEQUENCE": "RRIRMRPPRLPRPRPRPQDQPRP",
    "ASSAY VALUE": 0.228
  },
  {
    "POLYMER SEQUENCE": "RRIRRRPPRLPRPRPRPLWDPRP",
    "ASSAY VALUE": 0.56
  },
  {
    "POLYMER SEQUENCE": "RRIRQRPPRLPRPRPRPWWMPRP",
    "ASSAY VALUE": -0.0322
  },
  {
    "POLYMER SEQUENCE": "RRIRPRPPRLPRPRPRPDSCPRP",
    "ASSAY VALUE": 0.0412
  },
  {
    "POLYMER SEQUENCE": "RRIRLRPPRLPRPRPRPWSIPRP",
    "ASSAY VALUE": -0.0808
  },
  {
    "POLYMER SEQUENCE": "RRIRVRPPRLPRPRPRPKLYPRP",
    "ASSAY VALUE": -0.0874
  },
  {
    "POLYMER SEQUENCE": "RRIRRRPPRLPRPRPRPPVYPRP",
    "ASSAY VALUE": 0.32
  },
  {
    "POLYMER SEQUENCE": "RRIRWRPPRLPRPRPRPSCKPRP",
    "ASSAY VALUE": -0.183
  },
  {
    "POLYMER SEQUENCE": "RRIRERPPRLPRPRPRPGFFPRP",
    "ASSAY VALUE": -0.191
  },
  {
    "POLYMER SEQUENCE": "RRIRYRPPRLPRPRPRPMQIPRP",
    "ASSAY VALUE": "-6.27e-05"
  },
  {
    "POLYMER SEQUENCE": "RRIRQRPPRLPRPRPRPHKCPRP",
    "ASSAY VALUE": -0.364
  },
  {
    "POLYMER SEQUENCE": "RRIRFRPPRLPRPRPRPGPFPRP",
    "ASSAY VALUE": 0.14
  },
  {
    "POLYMER SEQUENCE": "RRIRNRPPRLPRPRPRPYKWPRP",
    "ASSAY VALUE": -0.233
  },
  {
    "POLYMER SEQUENCE": "RRIRTRPPRLPRPRPRPNSEPRP",
    "ASSAY VALUE": 0.0485
  },
  {
    "POLYMER SEQUENCE": "RRIRRRPPRLPRPRPRPHYDPRP",
    "ASSAY VALUE": -0.124
  }
]

----------
Some sequences, each annotated with its measured shrunken log2 fold change.
- System: Escherichia coli TOP10;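 also: peptides expressed intracellularly from a pBAD plasmid library in pooled LB shake-flask culture, induced with 0.3% L-arabinose, DNA abundance read by NGS, three biological replicates, DESeq2 with apeglm shrinkage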
- METHOD: shrunken log2 fold change of peptide-encoding DNA abundance (4.5 h post-induction vs induction); higher = less antimicrobial activity (less host growth inhibition)
- CONDITION: time post-induction: 4.5 h; library: site-saturation at positions 5, 18, 19, 20
PROPERTY NAME: shrunken log2 fold change

[
  {
    "POLYMER SEQUENCE": "RRIRQRPPRLPRPRPRPRHTPRP",
    "SYSTEM UNDER TEST": "Escherichia coli TOP10",
    "ASSAY VALUE": -0.147
  },
  {
    "POLYMER SEQUENCE": "RRIRVRPPRLPRPRPRPLAMPRP",
    "SYSTEM UNDER TEST": "Escherichia coli TOP10",
    "ASSAY VALUE": 0.209
  },
  {
    "POLYMER SEQUENCE": "RRIRSRPPRLPRPRPRPCAGPRP",
    "SYSTEM UNDER TEST": "Escherichia coli TOP10",
    "ASSAY VALUE": -0.0708
  },
  {
    "POLYMER SEQUENCE": "RRIRHRPPRLPRPRPRPGNQPRP",
    "SYSTEM UNDER TEST": "Escherichia coli TOP10",
    "ASSAY VALUE": 0.0401
  },
  {
    "POLYMER SEQUENCE": "RRIRSRPPRLPRPRPRPFQKPRP",
    "SYSTEM UNDER TEST": "Escherichia coli TOP10",
    "ASSAY VALUE": -0.00295
  },
  {
    "POLYMER SEQUENCE": "RRIRKRPPRLPRPRPRPMMEPRP",
    "SYSTEM UNDER TEST": "Escherichia coli TOP10",
    "ASSAY VALUE": -0.00277
  },
  {
    "POLYMER SEQUENCE": "RRIRHRPPRLPRPRPRPVFHPRP",
    "SYSTEM UNDER TEST": "Escherichia coli TOP10",
    "ASSAY VALUE": -0.345
  },
  {
    "POLYMER SEQUENCE": "RRIRTRPPRLPRPRPRPPCWPRP",
    "SYSTEM UNDER TEST": "Escherichia coli TOP10",
    "ASSAY VALUE": 0.171
  },
  {
    "POLYMER SEQUENCE": "RRIRNRPPRLPRPRPRPNVAPRP",
    "SYSTEM UNDER TEST": "Escherichia coli TOP10",
    "ASSAY VALUE": 3.26
  },
  {
    "POLYMER SEQUENCE": "RRIRWRPPRLPRPRPRPPWFPRP",
    "SYSTEM UNDER TEST": "Escherichia coli TOP10",
    "ASSAY VALUE": 0.218
  },
  {
    "POLYMER SEQUENCE": "RRIRVRPPRLPRPRPRPSEHPRP",
    "SYSTEM UNDER TEST": "Escherichia coli TOP10",
    "ASSAY VALUE": -0.779
  },
  {
    "POLYMER SEQUENCE": "RRIRNRPPRLPRPRPRPWTSPRP",
    "SYSTEM UNDER TEST": "Escherichia coli TOP10",
    "ASSAY VALUE": 0.0238
  },
  {
    "POLYMER SEQUENCE": "RRIRNRPPRLPRPRPRPWVCPRP",
    "SYSTEM UNDER TEST": "Escherichia coli TOP10",
    "ASSAY VALUE": 0.037
  },
  {
    "POLYMER SEQUENCE": "RRIRWRPPRLPRPRPRPHCYPRP",
    "SYSTEM UNDER TEST": "Escherichia coli TOP10",
    "ASSAY VALUE": -0.0542
  },
  {
    "POLYMER SEQUENCE": "RRIRLRPPRLPRPRPRPAMCPRP",
    "SYSTEM UNDER TEST": "Escherichia coli TOP10",
    "ASSAY VALUE": 0.059
  },
  {
    "POLYMER SEQUENCE": "RRIRLRPPRLPRPRPRPMWNPRP",
    "SYSTEM UNDER TEST": "Escherichia coli TOP10",
    "ASSAY VALUE": -0.299
  },
  {
    "POLYMER SEQUENCE": "RRIRMRPPRLPRPRPRPHYLPRP",
    "SYSTEM UNDER TEST": "Escherichia coli TOP10",
    "ASSAY VALUE": 0.106
  },
  {
    "POLYMER SEQUENCE": "RRIRPRPPRLPRPRPRPHLWPRP",
    "SYSTEM UNDER TEST": "Escherichia coli TOP10",
    "ASSAY VALUE": 0.181
  },
  {
    "POLYMER SEQUENCE": "RRIRVRPPRLPRPRPRPFQVPRP",
    "SYSTEM UNDER TEST": "Escherichia coli TOP10",
    "ASSAY VALUE": -0.0887
  },
  {
    "POLYMER SEQUENCE": "RRIRVRPPRLPRPRPRPFWNPRP",
    "SYSTEM UNDER TEST": "Escherichia coli TOP10",
    "ASSAY VALUE": -0.00518
  },
  {
    "POLYMER SEQUENCE": "RRIRCRPPRLPRPRPRPGHGPRP",
    "SYSTEM UNDER TEST": "Escherichia coli TOP10",
    "ASSAY VALUE": -0.0435
  },
  {
    "POLYMER SEQUENCE": "RRIRCRPPRLPRPRPRPAYHPRP",
    "SYSTEM UNDER TEST": "Escherichia coli TOP10",
    "ASSAY VALUE": -0.436
  },
  {
    "POLYMER SEQUENCE": "RRIRTRPPRLPRPRPRPGPYPRP",
    "SYSTEM UNDER TEST": "Escherichia coli TOP10",
    "ASSAY VALUE": -0.159
  },
  {
    "POLYMER SEQUENCE": "RRIRGRPPRLPRPRPRPQACPRP",
    "SYSTEM UNDER TEST": "Escherichia coli TOP10",
    "ASSAY VALUE": 0.27
  },
  {
    "POLYMER SEQUENCE": "RRIRLRPPRLPRPRPRPRTMPRP",
    "SYSTEM UNDER TEST": "Escherichia coli TOP10",
    "ASSAY VALUE": -0.0102
  },
  {
    "POLYMER SEQUENCE": "RRIRLRPPRLPRPRPRPAMMPRP",
    "SYSTEM UNDER TEST": "Escherichia coli TOP10",
    "ASSAY VALUE": -0.221
  },
  {
    "POLYMER SEQUENCE": "RRIRMRPPRLPRPRPRPMVSPRP",
    "SYSTEM UNDER TEST": "Escherichia coli TOP10",
    "ASSAY VALUE": 0.0423
  },
  {
    "POLYMER SEQUENCE": "RRIRDRPPRLPRPRPRPFVDPRP",
    "SYSTEM UNDER TEST": "Escherichia coli TOP10",
    "ASSAY VALUE": 0.063
  },
  {
    "POLYMER SEQUENCE": "RRIRRRPPRLPRPRPRPQTPPRP",
    "SYSTEM UNDER TEST": "Escherichia coli TOP10",
    "ASSAY VALUE": 0.881
  },
  {
    "POLYMER SEQUENCE": "RRIRRRPPRLPRPRPRPMTSPRP",
    "SYSTEM UNDER TEST": "Escherichia coli TOP10",
    "ASSAY VALUE": -0.00455
  },
  {
    "POLYMER SEQUENCE": "RRIRGRPPRLPRPRPRPGYIPRP",
    "SYSTEM UNDER TEST": "Escherichia coli TOP10",
    "ASSAY VALUE": -0.0887
  },
  {
    "POLYMER SEQUENCE": "RRIRWRPPRLPRPRPRPHDGPRP",
    "SYSTEM UNDER TEST": "Escherichia coli TOP10",
    "ASSAY VALUE": -0.00986
  }
]

Source: the supplement of paper PMC9112550
